Each recorded value in this set is attributed to PubChem BioAssay (NCI).

system: UACC-257 melanoma; experiment: NCI tumour cell line growth inhibition, 48 h
Listed compounds paired with reported TGI

compound	TGI
Cc1ccc2nc3ccccc3c(C3C4C(=O)N(c5ccc(Br)cc5Cl)C(=O)C4ON3C(C(N)=O)c3ccccc3)c2c1 (configuration not stated)	> 25 µM
COC(=O)c1ccc2c(c1)CC1(C2)Cc2cc3c(cc2C1=O)CCC3 (configuration not stated)	46.7 µM
Cn1cc(C2=C(c3cn(CCCN=C(N)N)c4ccccc34)C(=O)NC2=O)c2ccccc21	> 25 µM
Cc1nnc([C@@]2(C)CC[C@H]3[C@@H](CC=C4C[C@@H](O)CC[C@@]43C)[C@@H]2CC#N)o1	> 100 µM
Nc1c(-c2ccc(Br)cc2)[n+]([O-])c2ccccc2[n+]1[O-]	> 100 µM
Cc1cc(C)cc(Nc2nnc3n2S(=O)(=O)c2cc(C#N)c(Cl)cc2S3)c1	3.32 µM
COc1ccc(C2CC(=O)c3c(OC)cc(OC)cc3O2)cc1 (configuration not stated)	> 100 µM
COC(=O)C1=C(c2ccc3c(c2)OCO3)O[C@H](c2ccc3c(c2)OCO3)[C@H]1COC(C)=O	> 100 µM
COc1ccc(-c2nc(-c3nc4ccc(C)cc4[nH]3)c3ccccn23)cc1	6.17 µM
CC(C)CC(N)C(=O)O (configuration not stated)	> 100 µM
O=C(CSc1nnc(Cc2ccccc2)o1)Nc1cccc([N+](=O)[O-])c1	> 100 µM
COc1ccc(-n2c(SCc3cc(OC)c(OC)c(OC)c3)nc3ccc(C)cc3c2=O)cc1	> 100 µM
COC(=O)C(=O)C(C(=O)C(=O)Nc1ccc(C)cc1C)c1nc2ccccc2[nH]c1=O (configuration not stated)	> 100 µM
Oc1cc(O)c2c(c1)O[C@H](c1cc(O)c(O)c(O)c1)[C@H](O)C2	> 100 µM
CCOC(=O)N/N=C(/N)Cc1ccccc1	> 100 µM
CC[C@@H]1/C=C/C=C/C[C@H](C)[C@@H](O)[C@](C)(O)C(=O)[C@H](C)[C@@H](O)[C@H](C)C(=O)[C@H](C)[C@@H](O)[C@H](C)/C=C/C(=O)O[C@H]2[C@@H](C)[C@@H](CC1)O[C@]1(O[C@H](CC(C)O)[C@H](C)CC1=O)[C@@H]2C (some centres not stated)	3.54 µM
S=C1Cc2c([nH]c3ccccc23)-c2ccccc2N1	> 100 µM
COc1cc(Cn2c(-c3ccccc3)cc3c2-c2oncc2CC3)cc(OC)c1OC	> 100 µM
CC[N+](C)(CC)Cc1ccccc1[N+](=O)[O-]	> 100 µM
Cc1cc(O)c(/C=N/C(=S)NCCc2ccccc2)c(=O)o1	> 100 µM
Nc1nc(Cl)cc(NCC2(CO)COC2)n1	> 100 µM
CCN(CC)C(=O)C/C(C)=N/NC(=O)c1ccncc1	> 100 µM
CCOC(=O)C(Cl)(NC(=O)c1ccc(F)cc1)C(F)(F)F (configuration not stated)	> 100 µM
CCCCn1c(C)c(C(=O)OCC)c2cc(OCc3ccc(C(=O)Nn4c(C)ccc4C)cc3)c(Br)cc21	> 100 µM
COC1(OC)C2(Cl)CCC1(Cl)C(OC(C)=O)C2 (configuration not stated)	> 100 µM
CNC=O.[O]=[Ge].[O]=[Ge].[O]=[Ge].[O]=[Ge][OH].[O]=[Ge][OH]	> 100 µM
CCN(CC)Cc1cc(Nc2ccnc3ccc4c(nnn4C)c23)ccc1O	28.8 µM
O=C(c1ccccc1)c1c2ccccn2c2cccc[n+]12	> 100 µM
O=C(CCCSc1nc(-c2ccc(Cl)cc2)cc(-c2ccc(Cl)cc2)n1)NO	18.2 µM
C#CC[C@]12CC(=O)CC[C@H]1CC(=O)C2	> 100 µM
CSc1ccc(C2C(Cl)C(=O)N2NC(=O)c2c(Cl)c(Cl)c(Cl)c(Cl)c2-c2nc3ccccc3[nH]2)cc1 (configuration not stated)	51.3 µM
CCCNC(=S)N/N=C(\C)c1ccccn1	1.38 µM
COc1cc2c3c(n(CCCCl)c(=O)c2cc1OC)-c1ccccc1C3=O	> 100 µM
CC(=O)NC(CCCN)C(=O)NCc1ccccc1 (configuration not stated)	> 100 µM
S=C(/N=c1/sc(Nc2ccccc2)nc2sc3c(c12)CCCC3)Nc1ccccc1	> 62.5 µM
CCOC(=O)c1c(C)n(Cc2ccc(OC)cc2)c2c1cc(O)c1[nH]c3c(c12)CCCC3	9.66 µM
CCSc1nc(N2CCOCC2)c2cn[nH]c2n1	> 100 µM
N#Cc1cnsc1	> 100 µM
NC(N)=NC(N)=Nc1cc2ccccc2c2ccccc12	22.9 µM
COC(=O)C1(c2ccc(N(C)C)cc2OC)CCCN(C(=O)Oc2ccccc2[N+](=O)[O-])CCc2c1[nH]c1ccccc21 (configuration not stated)	> 100 µM
CC(=O)O[C@@H]1C=C(C)[C@H](CBr)O[C@@]2(C)CC[C@H](Br)C(C)(C)[C@H]12	> 100 µM
COc1ccc2c(c1)OCc1c-2oc2ccccc2c1=O	> 100 µM
